For each entry below, report its protein stability index value.
B1: ATL3 (parent)
chain: YGLQGGMAFLDKRLQVKEHQHEEI

Variants of: B1
Test: protein stability index of a GFP-peptide fusion (GPS, HEK-293T) (PSI 1-6); higher = more stable;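 note: lentivirally expressed fusions sorted by FACS into six bins by GFP to DsRed ratio, PSI derived from sequencing read proportions per bin multiplied by bin number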
Settings: c terminus: a fixed tail appended
One number for each entry.

Answered cases to consult:
RESIDUE_CODES: YGLQGGWAFLDKRLQVKEHQHEEI [M7W]
READOUT_NUMBER: 1.47

RESIDUE_CODES: YGLQGGMAFLDKRLQVREHQHEEI [K17R]
READOUT_NUMBER: 2.99

RESIDUE_CODES: YGLQGGMAFLDKRLQVKEHQCEEI [H21C]
READOUT_NUMBER: 2.48

RESIDUE_CODES: YGLQGGMAFLDKRLQVKEHMHEEI [Q20M]
READOUT_NUMBER: 2.35

RESIDUE_CODES: YGLQGGMAFLDKRLQVKEHQHQEI [E22Q]
READOUT_NUMBER: 1.75

// each variant listed below needs its protein stability index
1. YGLQGGMAFLDKRLQSKEHQHEEI [V16S]
2. YDLQGGMAFLDKRLQVKEHQHEEI [G2D]
3. YGLQGGMAFLDKRLQVKEHQHGEI [E22G]

1. 1.46
2. 3.52
3. 2.8

// each variant listed below needs its protein stability index
1. YGLQGGMAFLRKRLQVKEHQHEEI [D11R]
2. YGLQGGMKFLDKRLQVKEHQHEEI [A8K]
3. YGLQGGMAFLDKRLQVKEHQHREI [E22R]
4. YGLQGGMAFLDKRLQVKEHQHHEI [E22H]
5. YGLQGGTAFLDKRLQVKEHQHEEI [M7T]
6. YGLQGGMAFLDKRLQVKEHQHKEI [E22K]

1.95
1.71
2.16
2.91
1.7
1.86
